- system: Histone deacetylase 1 (Homo sapiens)
- protocolDescription: Inhibition of HDAC1 expressed in 293T cells
Non-standard residues stand in square brackets, D forms with d. Residues, ends and D or L forms follow the SMILES beside them. Ahp(7-SS(2-pyridyl)) = N[C@@H](CCCCCSSc1ccccn1)C(=O)O; Aib = CC(C)(N)C(=O)O
measurementType: IC50 (nM)

(I) CC(C)C[C@@H]1NC(=O)C(C)(C)NC(=O)[C@H](CCCCCSSc2ccccn2)NC(=O)[C@H]2CCCN2C1=O
(II) C[C@@H]1NC(=O)C(C)(C)NC(=O)[C@H](CCCCCSSc2ccccn2)NC(=O)[C@H]2CCCN2C1=O (cyclo(A[dP][Ahp(7-SS(2-pyridyl))][Aib]))
QUERY: # compare IC50 for I vs II ; return the one with the smaller value Answer with the label corresponding to your selection.
RESULT: I

---

- system: Protein deacetylase HDAC6 (Homo sapiens)
- Sequence (Q9UBN7 whole entry): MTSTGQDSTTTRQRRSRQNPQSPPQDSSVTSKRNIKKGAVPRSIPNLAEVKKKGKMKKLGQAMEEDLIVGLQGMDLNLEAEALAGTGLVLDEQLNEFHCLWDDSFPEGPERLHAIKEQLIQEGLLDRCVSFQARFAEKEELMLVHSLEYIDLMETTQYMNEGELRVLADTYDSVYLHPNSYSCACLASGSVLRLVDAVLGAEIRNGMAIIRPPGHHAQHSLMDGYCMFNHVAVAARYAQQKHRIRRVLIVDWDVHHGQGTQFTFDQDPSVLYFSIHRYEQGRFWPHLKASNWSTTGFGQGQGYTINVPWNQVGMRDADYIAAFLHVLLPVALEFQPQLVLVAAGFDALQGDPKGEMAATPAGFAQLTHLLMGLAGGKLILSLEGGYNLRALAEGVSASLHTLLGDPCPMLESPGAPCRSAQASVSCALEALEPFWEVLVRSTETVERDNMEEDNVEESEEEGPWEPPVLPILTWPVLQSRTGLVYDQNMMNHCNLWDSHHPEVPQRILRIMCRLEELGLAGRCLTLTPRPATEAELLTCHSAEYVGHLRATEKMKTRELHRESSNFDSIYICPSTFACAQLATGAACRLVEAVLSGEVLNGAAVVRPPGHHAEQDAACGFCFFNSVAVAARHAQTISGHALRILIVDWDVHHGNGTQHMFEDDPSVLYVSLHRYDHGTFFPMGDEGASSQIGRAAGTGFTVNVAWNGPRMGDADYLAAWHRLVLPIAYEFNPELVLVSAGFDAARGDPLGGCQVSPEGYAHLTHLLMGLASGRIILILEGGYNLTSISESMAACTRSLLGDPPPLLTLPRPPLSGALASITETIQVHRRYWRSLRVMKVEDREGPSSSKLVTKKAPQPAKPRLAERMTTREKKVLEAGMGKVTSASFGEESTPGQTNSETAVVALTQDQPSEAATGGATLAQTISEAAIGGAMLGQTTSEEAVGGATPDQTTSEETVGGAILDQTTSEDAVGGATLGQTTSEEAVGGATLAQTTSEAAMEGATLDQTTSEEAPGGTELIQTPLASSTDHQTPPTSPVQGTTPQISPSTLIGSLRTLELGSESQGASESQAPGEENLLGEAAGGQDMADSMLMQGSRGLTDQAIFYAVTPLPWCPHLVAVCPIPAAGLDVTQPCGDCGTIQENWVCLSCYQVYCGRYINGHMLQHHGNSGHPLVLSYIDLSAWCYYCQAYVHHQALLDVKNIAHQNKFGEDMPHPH
- protocolDescription: Inhibition of HDAC6 expressed in 293T cells
pIC50: −log10 of the molar value. Non-standard residues stand in square brackets, D forms with d. Residues, ends and D or L forms follow the SMILES beside them. Ahp(7-SS(2-pyridyl)) = N[C@@H](CCCCCSSc1ccccn1)C(=O)O; Aib = CC(C)(N)C(=O)O
measurementType: pIC50

(I) CC[C@H](C)[C@@H]1NC(=O)C(C)(C)NC(=O)[C@H](CCCCCSSc2ccccn2)NC(=O)[C@H]2CCCN2C1=O
(II) O=C1N[C@@H]2CCCCCCCCCCCC[C@H](NC2=O)C(=O)N2CCC[C@@H]2C(=O)N[C@H]1CCCCCSSc1ccccn1
QUERY: // max by pIC50 over [ I , II ] Answer with the label corresponding to your selection.
RESULT: I
(I: 6.51, II: 5.31)

(A) C[C@@H]1NC(=O)C(C)(C)NC(=O)[C@H](CCCCCSSc2ccccn2)NC(=O)[C@H]2CCCN2C1=O (cyclo(A[dP][Ahp(7-SS(2-pyridyl))][Aib]))
(B) CC(C)C[C@@H]1NC(=O)C(C)(C)NC(=O)[C@H](CCCCCSSc2ccccn2)NC(=O)[C@H]2CCCN2C1=O
QUERY: # compare pIC50 for A vs B ; return the one with the smaller value Answer with the label corresponding to your selection.
RESULT: A

---

- system: Histone deacetylase 4 (Homo sapiens)
- Sequence (P56524 whole entry): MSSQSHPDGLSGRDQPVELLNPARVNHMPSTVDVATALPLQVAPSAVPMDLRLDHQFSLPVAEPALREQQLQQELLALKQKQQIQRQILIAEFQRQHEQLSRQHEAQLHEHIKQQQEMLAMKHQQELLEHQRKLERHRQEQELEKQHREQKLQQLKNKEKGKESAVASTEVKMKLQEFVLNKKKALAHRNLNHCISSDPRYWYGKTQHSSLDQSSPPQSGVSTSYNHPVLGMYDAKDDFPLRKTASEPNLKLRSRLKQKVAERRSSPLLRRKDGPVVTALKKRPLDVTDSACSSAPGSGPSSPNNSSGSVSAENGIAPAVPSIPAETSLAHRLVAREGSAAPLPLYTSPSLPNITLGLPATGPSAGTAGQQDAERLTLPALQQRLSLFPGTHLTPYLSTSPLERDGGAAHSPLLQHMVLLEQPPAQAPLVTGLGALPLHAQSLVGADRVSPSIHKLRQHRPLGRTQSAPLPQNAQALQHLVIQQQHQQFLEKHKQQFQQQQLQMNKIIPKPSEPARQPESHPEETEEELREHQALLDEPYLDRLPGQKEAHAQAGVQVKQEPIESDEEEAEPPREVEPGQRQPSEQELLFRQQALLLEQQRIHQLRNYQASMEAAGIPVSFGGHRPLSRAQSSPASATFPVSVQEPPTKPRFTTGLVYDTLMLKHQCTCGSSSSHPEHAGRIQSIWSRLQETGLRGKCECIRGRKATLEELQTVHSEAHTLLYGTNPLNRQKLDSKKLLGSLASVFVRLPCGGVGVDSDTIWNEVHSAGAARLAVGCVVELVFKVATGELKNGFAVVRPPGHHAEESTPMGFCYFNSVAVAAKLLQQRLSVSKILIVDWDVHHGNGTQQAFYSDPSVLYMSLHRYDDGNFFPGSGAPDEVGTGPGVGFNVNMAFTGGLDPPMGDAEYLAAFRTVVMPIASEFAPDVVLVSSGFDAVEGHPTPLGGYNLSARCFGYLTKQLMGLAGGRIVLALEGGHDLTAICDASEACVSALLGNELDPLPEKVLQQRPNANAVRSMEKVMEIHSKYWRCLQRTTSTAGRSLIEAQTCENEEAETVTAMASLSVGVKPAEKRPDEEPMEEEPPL
- protocolDescription: Inhibition of HDAC4 expressed in 293T cells
pIC50: −log10 of the molar value. Non-standard residues stand in square brackets, D forms with d. Residues, ends and D or L forms follow the SMILES beside them. Ahp(7-SS(2-pyridyl)) = N[C@@H](CCCCCSSc1ccccn1)C(=O)O; Aib = CC(C)(N)C(=O)O
measurementType: pIC50

| molecule | system | pIC50 |
| --- | --- | --- |
| CC(C)C[C@@H]1NC(=O)C(C)(C)NC(=O)[C@H](CCCCCSSc2ccccn2)NC(=O)[C@H]2CCCN2C1=O | Histone deacetylase 4 (Homo sapiens) | 7.48 |
| CC[C@H](C)[C@@H]1NC(=O)C(C)(C)NC(=O)[C@H](CCCCCSSc2ccccn2)NC(=O)[C@H]2CCCN2C1=O | Histone deacetylase 4 (Homo sapiens) | 7.64 |
| CC1(C)NC(=O)[C@H](CCCCCSSc2ccccn2)NC(=O)[C@H]2CCCN2C(=O)[C@H](Cc2ccccc2)NC1=O (cyclo([Aib]F[dP][Ahp(7-SS(2-pyridyl))])) | Histone deacetylase 4 (Homo sapiens) | 7.74 |
| CCCC[C@@H]1NC(=O)C(C)(C)NC(=O)[C@H](CCCCCSSc2ccccn2)NC(=O)[C@H]2CCCN2C1=O | Histone deacetylase 4 (Homo sapiens) | 7.62 |

(P) O=C1N[C@@H]2CCCCCCCCCCCC[C@H](NC2=O)C(=O)N2CCC[C@@H]2C(=O)N[C@H]1CCCCCSSc1ccccn1
(Q) C[C@@H]1NC(=O)C(C)(C)NC(=O)[C@H](CCCCCSSc2ccccn2)NC(=O)[C@H]2CCCN2C1=O (cyclo(A[dP][Ahp(7-SS(2-pyridyl))][Aib]))
QUERY: # compare pIC50 for P vs Q ; return the one with the smaller value Answer with the label corresponding to your selection.
RESULT: Q

---

- system: Histone deacetylase 1 (Homo sapiens, UniProt Q13547)
- Sequence (Q13547 whole entry): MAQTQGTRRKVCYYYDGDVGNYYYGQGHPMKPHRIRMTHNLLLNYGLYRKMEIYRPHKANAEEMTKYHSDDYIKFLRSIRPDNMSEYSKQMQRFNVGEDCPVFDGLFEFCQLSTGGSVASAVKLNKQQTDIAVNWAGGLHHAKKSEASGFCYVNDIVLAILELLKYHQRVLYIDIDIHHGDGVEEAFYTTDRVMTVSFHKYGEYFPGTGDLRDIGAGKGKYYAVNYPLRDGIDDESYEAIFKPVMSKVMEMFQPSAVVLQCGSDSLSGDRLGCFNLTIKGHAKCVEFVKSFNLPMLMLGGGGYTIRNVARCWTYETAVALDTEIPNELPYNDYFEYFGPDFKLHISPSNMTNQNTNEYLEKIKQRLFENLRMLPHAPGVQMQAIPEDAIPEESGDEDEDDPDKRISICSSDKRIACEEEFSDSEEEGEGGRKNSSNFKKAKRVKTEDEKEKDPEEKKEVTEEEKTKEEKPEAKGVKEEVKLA
- protocolDescription: Inhibition of HDAC1 expressed in 293T cells
- Type: cell-based
Non-standard residues stand in square brackets, D forms with d. Residues, ends and D or L forms follow the SMILES beside them. Ahp(7-SS(2-pyridyl)) = N[C@@H](CCCCCSSc1ccccn1)C(=O)O; Aib = CC(C)(N)C(=O)O
measurementType: IC50 (nM)

| molecule | system | IC50 (nM) |
| --- | --- | --- |
| O=C1N[C@@H]2CCCCCCCCCCCC[C@H](NC2=O)C(=O)N2CCC[C@@H]2C(=O)N[C@H]1CCCCCSSc1ccccn1 | Histone deacetylase 1 (Homo sapiens, UniProt Q13547) | 35 |
| CCCC[C@@H]1NC(=O)C(C)(C)NC(=O)[C@H](CCCCCSSc2ccccn2)NC(=O)[C@H]2CCCN2C1=O | Histone deacetylase 1 (Homo sapiens, UniProt Q13547) | 38 |
| CC1(C)NC(=O)[C@H](CCCCCSSc2ccccn2)NC(=O)[C@H]2CCCN2C(=O)[C@H](Cc2ccccc2)NC1=O (cyclo([Aib]F[dP][Ahp(7-SS(2-pyridyl))])) | Histone deacetylase 1 (Homo sapiens, UniProt Q13547) | 39 |
| CC[C@H](C)[C@@H]1NC(=O)C(C)(C)NC(=O)[C@H](CCCCCSSc2ccccn2)NC(=O)[C@H]2CCCN2C1=O | Histone deacetylase 1 (Homo sapiens, UniProt Q13547) | 38 |

Hello, the source for this data is ChEMBL document CHEMBL1140755, in case you need it.
